- Tested on: M. tuberculosis H37Rv growth inhibition with meropenem
- assay_procedure: dose response, H37Rv, with and without meropenem (AID 434987);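 also: growth over 7 days at 37 °C before Alamar Blue read on day 9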
- stated_conditions: M. tuberculosis H37Rv growth inhibition; measured here: IC50 without meropenem
Recorded pIC50 for the following molecules
Notebook: values listed as pIC50 are -log10 of the concentration (mol/L).

Study these solved cases before continuing.
chemical_structure | pIC50
O=C(COC(=O)Cc1ccc(S(=O)(=O)N2CCCCC2)s1)Nc1ccc2c(c1)OCO2 | 4.16
C[C@H]1C=CC(=O)O[C@H]1c1ccccc1 | 4.36
CC1CCN(C(=S)NC(=O)c2ccccc2)CC1 | 4.39
Cc1c(OCc2ccc(C(=O)O)cc2)ccc2c(-c3ccccc3)cc(=O)oc12 | 4.34

Kindly review the next molecule as well.
Req: Value lookup for pIC50; key = `CCN(CC(=O)Nc1ccc2c(c1)OCCO2)C(=O)c1ccc([N+](=O)[O-])s1`
Resp: 4.57

* * *

- Test system: M. tuberculosis H37Rv growth inhibition with meropenem
- assay_procedure: dose response, H37Rv, with and without meropenem (AID 434987);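 also: growth over 7 days at 37 °C before Alamar Blue read on day 9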
- stated_conditions: M. tuberculosis H37Rv growth inhibition; measured here: IC50 without meropenem
Each record here notes measured pIC50.
Notebook: values listed as pIC50 are -log10 of the concentration (mol/L).

molecule | target_of_assay | pIC50
CCCCNC(=O)c1onc(CSc2ccccc2C)c1C(=O)O | M. tuberculosis H37Rv growth inhibition with meropenem | 4.09
C/C(=N\NC(=S)Nc1ccccc1C)c1ccc(O)cc1 | M. tuberculosis H37Rv growth inhibition with meropenem | 4.67
O=c1c2c3n(c(=S)nc2[nH]n1-c1ccccc1)CCCCC3 | M. tuberculosis H37Rv growth inhibition with meropenem | 4.57
O=C1c2ccccc2N2C(=O)c3ccccc3C2N1O (stereo unspecified) | M. tuberculosis H37Rv growth inhibition with meropenem | 4.41

Kindly review the next molecule as well.
Req: Please give the measured pIC50 for this molecule: `CCc1cc(C(=O)O)c(NC(=O)/C=C/c2ccc(OC)cc2)s1`
Resp: 4.67

* * *

Measured IC50, listed per entry.
- Tested on: M. tuberculosis H37Rv growth inhibition with meropenem
- assay_procedure: dose response, H37Rv, with and without meropenem (AID 434987);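 also: growth over 7 days at 37 °C before Alamar Blue read on day 9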
- stated_conditions: M. tuberculosis H37Rv growth inhibition; measured here: IC50 without meropenem

Req: Form entry - test system: M. tuberculosis H37Rv growth inhibition with meropenem; read-out: IC50; molecule: `O=C(CN1CCN(c2ccc(F)cc2)CC1)Nc1ccccc1C(=O)NCCc1ccccc1`
Resp: > 100 µM

Req: What measured IC50 is associated with `COc1ccc(Cl)cc1NC(=O)CN(C)C(=O)c1ccc(N2CCCCCC2)c([N+](=O)[O-])c1` on M. tuberculosis H37Rv growth inhibition with meropenem?
Resp: > 100 µM

Req: Form entry - test system: M. tuberculosis H37Rv growth inhibition with meropenem; read-out: IC50; molecule: CCOC(=O)c1ccccc1NC(=O)C1COc2ccccc2O1 (centres undefined)
Resp: 36.2 µM

Req: State its IC50 on M. tuberculosis H37Rv growth inhibition with meropenem: `NCCS`
Resp: > 100 µM

Req: What value of IC50 on M. tuberculosis H37Rv growth inhibition with meropenem does `CC1(C)C[C@@H]1C(=O)N/C(=C\CCCCSC[C@H](N)C(=O)O)C(=O)O` have?
Resp: > 100 µM

Req: For M. tuberculosis H37Rv growth inhibition with meropenem, provide IC50 of `CCCn1nnnc1NC(=O)COc1ccc(Cl)cc1C` please.
Resp: 24.3 µM

* * *

Overview of reported pIC50 across a group of compounds:
- Tested on: M. tuberculosis H37Rv growth inhibition with meropenem
- assay_procedure: dose response, H37Rv, with and without meropenem (AID 434987);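 also: growth over 7 days at 37 °C before Alamar Blue read on day 9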
- stated_conditions: M. tuberculosis H37Rv growth inhibition; measured here: IC50 without meropenem
pIC50: −log10 of the molar value.

Past entries and their recorded results:
compound | pIC50
Cc1ccccc1/C=N\NC(=O)c1csnn1 | < 4.00
COc1cc(OC)cc(-c2nnc(NC(=O)CCS(=O)(=O)c3ccc(C)cc3)o2)c1 | < 4.00
COC(=O)c1c(C)n(-c2ccc(C)cc2)c2ccc(O)cc12 | < 4.00
O=S1(=O)CCO[C@H]2Cc3ccccc3[C@H]2N1Cc1ccc(F)cc1 | < 4.00

Req: // pIC50 lookup, key: `CCOC(=O)c1cc(C(=O)OCC)cc(-n2cc(O)c(C(=O)OCC)n2)c1`
Resp: < 4.00

Req: Record request: pIC50 value, item `O=S(=O)(Nc1ccccc1)c1ccc2c(c1)CCO2`
Resp: < 4.00

* * *

# reported IC90; entries follow
- System: M. tuberculosis H37Rv growth inhibition with meropenem
- assay_procedure: dose response, H37Rv, with and without meropenem (AID 434987);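 also: growth over 7 days at 37 °C before Alamar Blue read on day 9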
- stated_conditions: measured here: IC90 with meropenem

Answered examples (5):
chemical_structure | IC90
CC(C)(C)OC(=O)N1CCC(NC(=O)c2[nH]cnc2C(=O)Nc2ccccc2)CC1 | > 100 µM
COc1ccc([N+](=O)[O-])cc1NS(=O)(=O)c1ccc(C(=O)N2CCCC2)cc1 | > 100 µM
O=C(Nc1ccccc1)Nc1csc2ccccc12 | 20.9 µM
CSc1nc2cc3c(cc2n1C(=O)c1ccc(C)cc1)OCCO3 | > 100 µM
CC(C)OCc1c(C(=O)Nc2nccs2)oc2ccccc12 | > 100 µM

Now turn to the next compound.
Req: Recorded IC90 of `O=C(Nc1ccccc1Br)c1cccc2ccccc12` , please.
Resp: > 100 µM

* * *

- Tested on: M. tuberculosis H37Rv growth inhibition with meropenem
- assay_procedure: dose response, H37Rv, with and without meropenem (AID 434987);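 also: growth over 7 days at 37 °C before Alamar Blue read on day 9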
- stated_conditions: M. tuberculosis H37Rv growth inhibition; measured here: IC50 without meropenem
Here, each record is paired with measured IC50 data.

Solved cases (3 shown):
molecule | IC50
CN(c1ccc(OCC(=O)Nc2ccc3[nH]c(=O)[nH]c3c2)cc1)S(=O)(=O)c1ccc(Cl)cc1 | > 100 µM
CCOC(=O)C1CCN(C(=O)CCCCn2c(=O)[nH]c3ccccc3c2=O)CC1 | > 100 µM
Cc1onc(-c2c(Cl)cccc2Cl)c1/C(N)=N/OC(=O)C1CC1 | > 100 µM

Req: Query (molecule): `O=C(Nc1ccc(N2CCCCC2)cc1)c1cc([N+](=O)[O-])cc([N+](=O)[O-])c1` ; field requested: IC50
Resp: > 100 µM

Req: Return reported IC50; argument: `Cc1c(C(=O)c2ccccc2)oc2ccc3ccccc3c12`
Resp: > 100 µM

Req: Which value of IC50 has been reported for `O=C(Nc1cccc(Cl)c1N1CCOCC1)c1ccc([N+](=O)[O-])o1` in the records?
Resp: 11 µM

Req: Quick one: IC50 of `S=c1[nH]cnc2scc(-c3ccc(Br)cc3)c12` ?
Resp: 98.8 µM

Req: Record request: IC50 value, item `COc1ccc(C[C@H](C)NC[C@@H](O)c2ccc(O)c(NC=O)c2)cc1`
Resp: > 100 µM

Req: Which IC50 value is on record for `CC[C@@]1(c2ccccc2OC)C(=O)N(C(=O)OC)N1C(=O)OC` ?
Resp: > 100 µM

Req: # get_value(readout='IC50', item= `COc1ccc(Nc2cc(C(=O)NCc3ccco3)c3ccccc3n2)c(OC)c1` )
Resp: > 100 µM

Req: Give its IC50 value. Item: `CCOC(=O)CNC(=O)c1cccnc1Oc1ccc(Cl)cc1`
Resp: 36.7 µM

Req: Need IC50, item `O=C(Nc1nnc(-c2ccccc2SCc2ccccc2F)s1)Nc1ccccc1F`
Resp: > 100 µM

Req: Recorded IC50 of `CCn1c(O)c(/C=N/NC(=O)c2ccccc2)c(=O)n(CC)c1=S` , please.
Resp: > 100 µM

Req: What IC50 value was documented for this molecule, `O=C(C1=C[C@H](c2ccc(Br)cc2)C[C@H](OCc2ccc(CO)cc2)O1)N1CCN(Cc2ccc3c(c2)OCO3)CC1` ?
Resp: > 100 µM

Req: State the recorded IC50 for this entry: `O=C(Nc1cccc(C(F)(F)F)c1)N1CCC(c2nc(-c3ccc(F)cc3)no2)CC1`
Resp: > 100 µM

Req: Query (molecule): `CCC(=O)c1ccc(OCc2ccc(C(=O)OC)cc2)c(OC)c1` ; field requested: IC50
Resp: > 100 µM

Req: For the molecule shown here, CCC(C(=O)NC1C(=O)N2C(C(=O)O)=C(CSc3nnc(C)s3)CSC12)c1ccccc1 (stereo not drawn) , give the reported IC50.
Resp: > 100 µM

Req: Sample `O=C(CSc1nnc(SCc2ccc(Cl)cc2)s1)c1ccc2c(c1)OCO2` — what was its IC50?
Resp: > 100 µM

Req: Any idea what IC50 was measured for `CSc1cccc(NC(=O)c2ccc(Cl)nc2)c1` ?
Resp: > 100 µM

Req: Please give the measured IC50 for this molecule: CC(C)Oc1ccc(N2CC(C(=O)Nc3ccccc3F)CC2=O)cc1 (stereo not drawn)
Resp: > 100 µM

Req: For the molecule `Cc1cc(C)cc(OCC(=O)NNC(=O)c2ccccn2)c1` , what IC50 is on record?
Resp: 10.9 µM

Req: Quick check: IC50 of Cc1c(C(=O)NCCC2=CCCCC2)sc2ncnc(N3CCCCC3C)c12 (stereo not drawn) ?
Resp: 65.7 µM
